Exercise: state measured TGI for each of the compounds provided.
Test system: MCF7 breast
TEST_METHOD_NOTES: NCI tumour cell line growth inhibition, 48 h

Recall the recorded TGI for `C=C(CN(C)C)C(=O)c1ccc(Oc2ccccc2)cc1` with MCF7 breast and state it.
15.6 µM

Recall the recorded TGI for NC(CC(=O)O)(Cc1ccccc1)C(=O)O (configuration not stated) with MCF7 breast and state it.
> 100 µM

Recall the recorded TGI for `Nc1nc(-c2ccc(Cl)cc2)cc(-c2ccccc2)c1-c1nc2ccccc2o1` with MCF7 breast and state it.
> 100 µM

The following compounds each have a reported value; give each one's TGI.
1. COc1cc(/C=C2\C[C@H]3[C@@H]4CC=C5C[C@@H](OC(C)=O)CC[C@]5(C)[C@H]4CC[C@]3(C)[C@H]2OC(C)=O)ccc1OCCN1CCCCC1
2. COC(=O)c1ccc(NCC2=CC(=O)C=CC2=O)cc1
3. CC1C(O)Oc2cc3c(cc2C1c1ccccc1O)OCO3 (configuration not stated)
4. COc1cc2c(cc1OC)-c1cc3ccc(OC)c(OC)c3c[n+]1CC2
5. Cc1cc2nc(C(Cl)Cl)nc(-c3ccccc3)n2n1

25 µM
30.8 µM
> 100 µM
> 100 µM
> 100 µM

The following compounds each have a reported value; give each one's TGI.
1. O=S(=O)(O)C(Cc1nc2ccccc2[nH]1)S(=O)(=O)OCCC1S(=O)(=O)OCCOS1(=O)=O (configuration not stated)
2. C[C@]12CCC(=O)C=C1CC[C@@H]1[C@@H]2[C@@H](O)C[C@@]2(C)[C@H]1CC[C@]2(O)C(=O)COC(=O)C1CCCC1
3. Cc1nc2sc(C(=O)Nc3cccc(Br)c3)c(N)c2cc1C(O)c1ccccc1 (configuration not stated)
4. CCN(CC)CCCNc1ncc(C)c2c1c1ccc3c(O)cccc3c1n2C
5. CC1(O)Oc2ccc3ccccc3c2C=C1C(N)=O (configuration not stated)
6. Cn1c(=O)c2c(nc3n(C)c(=O)c4ccccc4n23)n(C)c1=O
7. O=C(O)c1ccccc1Nc1ccc2nnc(-c3ccncc3)n2n1
8. COc1ccc(-n2sc3ncc([N+](=O)[O-])cc3c2=O)cc1

1: > 100 µM; 2: > 100 µM; 3: 17 µM; 4: 2.06 µM; 5: > 100 µM; 6: > 100 µM; 7: 24.6 µM; 8: > 100 µM

---

Tested on: MALME-3M melanoma
TEST_METHOD_NOTES: NCI tumour cell line growth inhibition, 48 h
QUANTITY_KIND: TGI

Consider the following illustrative entries.
Returns the measured TGI for the input molecule. Input: `Clc1ccc(-c2nnc(-c3c(Cl)c(Cl)c(Cl)c(Cl)c3-c3nc4ccccc4[nH]3)o2)cc1`
> 100 µM

Returns the measured TGI for the input molecule. Input: COc1cc2c(cc1OCCCN1CCN(c3ncnc4ccccc34)CC1)N=CC1CCCN1C2=O (stereo not given)
0.0479 µM

Returns the measured TGI for the input molecule. Input: `COC(=O)C1(C(=O)OC)CC2=C(S(=O)(=O)c3ccccc3)C[C@H](C#N)[C@H]2C1`
> 100 µM

The following molecules each have a reported value; give each one's TGI.
1. Nc1nc(=O)n(CC(O)CO)s1 (stereo not given)
2. Cc1ccc(C2=NN(c3ccc(S(N)(=O)=O)cc3)C(c3cn(-c4ccccc4)nc3-c3ccccc3)C2)cc1 (stereo not given)
3. Oc1c(CN2CCN(c3ccccc3F)CC2)cc(Br)c2cccnc12
4. Fc1ccc2c3c([nH]c2c1)CCNC3

["> 100 µM", "> 100 µM", "9.46 µM", "> 100 µM"]

Attribution: PubChem BioAssay (NCI)
